Where do these numbers come from? They come from ChEMBL document CHEMBL1961873.

Give measured inhibition for each item. Keep answers brief.
system_tested: Serine/threonine-protein kinase PAK 1 (Homo sapiens) (UniProt Q13153);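 further: reported values are mean percent inhibition of PAK1 activity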
Sequence (Q13153 whole entry): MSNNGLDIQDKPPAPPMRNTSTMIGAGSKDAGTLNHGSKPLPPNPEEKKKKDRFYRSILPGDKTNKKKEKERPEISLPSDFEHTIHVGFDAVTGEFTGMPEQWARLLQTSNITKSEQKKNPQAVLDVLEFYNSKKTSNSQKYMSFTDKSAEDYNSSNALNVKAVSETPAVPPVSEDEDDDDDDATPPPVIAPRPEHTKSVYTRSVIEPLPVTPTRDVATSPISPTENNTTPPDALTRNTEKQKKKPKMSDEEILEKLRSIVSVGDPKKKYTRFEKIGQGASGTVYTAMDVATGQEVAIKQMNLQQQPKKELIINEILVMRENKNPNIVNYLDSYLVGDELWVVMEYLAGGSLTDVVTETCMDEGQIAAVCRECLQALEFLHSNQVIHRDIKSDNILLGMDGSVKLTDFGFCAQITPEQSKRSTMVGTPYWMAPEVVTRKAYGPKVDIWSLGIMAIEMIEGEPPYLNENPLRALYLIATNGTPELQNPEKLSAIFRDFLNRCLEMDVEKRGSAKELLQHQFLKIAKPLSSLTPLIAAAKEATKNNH
condition_info: at 1 µM
# value in %; strip the unit string

Q) Quick one: inhibition for "O=C1Nc2ccccc2/C1=C1\CCc2cc(O)ccc21" ?
A) 7.72

Q) Repeat with "CNC(=O)c1cncc(/C=C/c2ccccc2C)c1"
A) 7.54

Q) Follow-up entry: "COc1ccc(Nc2ncc(-c3ccccc3)o2)cc1OC"
A) 1.35

###

Tested on: Mast/stem cell growth factor receptor Kit (Homo sapiens), P10721 [D816V]
Sequence (P10721 whole entry D816V): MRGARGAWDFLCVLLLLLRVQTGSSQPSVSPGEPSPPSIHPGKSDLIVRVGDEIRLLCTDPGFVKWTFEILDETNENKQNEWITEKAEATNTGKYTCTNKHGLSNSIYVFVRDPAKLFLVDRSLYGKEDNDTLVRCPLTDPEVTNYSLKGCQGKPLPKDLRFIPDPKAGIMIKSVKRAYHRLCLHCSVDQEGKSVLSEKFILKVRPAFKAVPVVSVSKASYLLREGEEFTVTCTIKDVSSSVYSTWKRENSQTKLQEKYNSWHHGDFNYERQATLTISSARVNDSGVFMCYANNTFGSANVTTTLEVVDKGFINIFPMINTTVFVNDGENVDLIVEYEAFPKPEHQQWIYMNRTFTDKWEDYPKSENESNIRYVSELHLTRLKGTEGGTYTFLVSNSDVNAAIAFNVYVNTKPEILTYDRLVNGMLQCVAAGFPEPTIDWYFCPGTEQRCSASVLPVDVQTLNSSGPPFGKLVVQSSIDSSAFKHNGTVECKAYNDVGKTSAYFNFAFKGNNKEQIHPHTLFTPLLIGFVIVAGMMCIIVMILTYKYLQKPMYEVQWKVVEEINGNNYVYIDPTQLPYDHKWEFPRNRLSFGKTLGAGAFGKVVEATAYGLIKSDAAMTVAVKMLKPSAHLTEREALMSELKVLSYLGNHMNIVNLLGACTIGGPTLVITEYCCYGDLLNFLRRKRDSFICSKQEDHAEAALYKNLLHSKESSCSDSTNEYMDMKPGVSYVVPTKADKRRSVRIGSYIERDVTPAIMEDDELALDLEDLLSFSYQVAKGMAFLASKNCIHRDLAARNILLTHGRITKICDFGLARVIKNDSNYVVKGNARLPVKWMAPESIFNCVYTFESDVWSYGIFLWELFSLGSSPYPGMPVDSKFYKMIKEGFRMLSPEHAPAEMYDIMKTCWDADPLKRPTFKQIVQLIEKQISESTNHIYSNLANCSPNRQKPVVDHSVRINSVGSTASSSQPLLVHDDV
condition_info: at 1 µM
readout_name: inhibition (%)
Value expressed in %; do not type the unit.

Q) Recorded inhibition of "O=C(Nc1n[nH]c2nnc(-c3cccnc3)cc12)C1CC1" , please.
A) 1.15

Q) What do we get for "CCCNc1cccc(-n2ncc3c(N/N=C/c4ccncc4)ncnc32)c1" ?
A) 9.89

Q) Field entry: "Cn1c(-c2nonc2N)nc2cnccc21"
A) 2.94

Q) And what about the compound "CN1CCC(n2cnc(-c3ccc(F)cc3)c2-c2ccnc(NCCO)n2)CC1" ?
A) 7.69

Q) What about "Fc1cccc(COc2ccc(Nc3ncncc3C#Cc3ccccc3)cc2Cl)c1" ?
A) 7.92

Q) Okay, and "COC(=O)Nc1nc2ccc(Oc3ccc(NC(=O)Nc4cc(C(F)(F)F)ccc4F)cc3)cc2s1" ?
A) -0.29

Q) Next up: "FC(F)(F)CNc1nccc(-c2cnn3ncccc23)n1"
A) 2.79

Q) Now give it for "CNC(=O)c1ncccc1Nc1nc(Nc2cc3c(cc2OC)CCCN3C(=O)CN(C)C)nc2[nH]ccc12" too.
A) 4.76
